Listing of recorded degree of damage to the plants in % damage by entry.
- Test system: Setaria
- test-name: Post-emergence test (greenhouse)
- Type: in vivo
- condition-details: 250 g ai/ha, after three weeks
attribute-measured: degree of damage to the plants in % damage (%)

> print(dat)
                                   molecule  measurement.target  unit.spec  endpoint.value
1  CCOC1CCC2(CC1)NC(=O)C(Cl)(c1c(C)cc(-c3ccc(Cl)cc3)cc1Cl)C2=O (stereo not drawn)             Setaria          %             100
2  Cc1cc(-c2ccc(Cl)cc2)cc(Cl)c1C1(Cl)C(=O)NC2(CCCOC2)C1=O (stereo not drawn)             Setaria          %             100
3  COC1CCC2(CC1)NC(=O)C(Cl)(c1c(C)cc(-c3cccc(Cl)c3)cc1C)C2=O (stereo not drawn)             Setaria          %             100
4  COC1CCC2(CC1)NC(=O)C(Cl)(c1cc(-c3ccc(Cl)c(Cl)c3)ccc1C)C2=O (stereo not drawn)             Setaria          %              90
5  Cc1ccc(-c2ccc(Cl)cc2)cc1C1(Cl)C(=O)NC(C)(C(C)C)C1=O (stereo not drawn)             Setaria          %             100
6  Cc1cc(C)c(C2(Cl)C(=O)NC3(CCCOC3)C2=O)cc1-c1ccc(Cl)cc1 (stereo not drawn)             Setaria          %             100
7  Cc1cc(C)c(C2(Cl)C(=O)NC3(CCOCC3)C2=O)cc1-c1ccc(Cl)cc1 (stereo not drawn)             Setaria          %              95
8  CCOC1CCC2(CC1)NC(=O)C(Cl)(c1c(C)cc(-c3ccc(Cl)cc3)cc1CC)C2=O (stereo not drawn)             Setaria          %             100
9  Cc1ccc(-c2ccc(Cl)cc2)cc1C1(Cl)C(=O)NC2(CCOCC2)C1=O (stereo not drawn)             Setaria          %             100

----------
- test-name: physchem
- Assay type: physicochemical
- condition-details: pH 2.5
attribute-measured: chromatographic logP

> print(dat)
                                   compound  endpoint.value
1  Cc1ccc(-c2ccc(Cl)cc2)cc1C1(Cl)C(=O)OC(C)(C)C1=O (stereo not shown)             4.8

----------
Measured Kill rate in % after 7 d accompanies every entry in the list below.
- Test system: greenhouse red spider mite (Tetranychus urticae)
- test-name: Tetranychus test (OP-resistent/dip treatment)
- Type: in vivo
- condition-details: 100 ppm, bean plants dipped
- Description: Tetranychus Test (OP-Resistent/Dip Treatment) Solvent: 7 parts by weight of dimethylformamide Emulsifier: 2 parts by weight of alkylaryl polyglycol ether To produce a suitable preparation of active compound, 1 part by weight of active compound is mixed with the stated amounts of solvent and emulsifier, and the concentrate is diluted with emulsifier-containing water to the desired concentration. […] After the desired period of time, the effect in % is determined. […]
attribute-measured: Kill rate in % after 7 d

> print(dat)
                                   molecule  endpoint.value
1  Cc1ccc(-c2ccc(Cl)cc2)cc1C1(Cl)C(=O)OC(C)(C)C1=O (stereo not drawn) [Ex. I-2-1]             98%
2  Cc1ccc(-c2ccc(Cl)cc2)cc1C1(Cl)C(=O)NC2(CCOCC2)C1=O (stereo not drawn) [Ex. I-1-14]             99%
3  Cc1cc(C)c(C2(Cl)C(=O)NC3(CCCOC3)C2=O)cc1-c1ccc(Cl)cc1 (stereo not drawn) [Ex. I-1-7]             98%

----------
- Test system: Avena fatua
- test-name: Post-emergence test (greenhouse)
- Type: in vivo
- condition-details: 250 g ai/ha, after three weeks
- Method: Solvent: 5 parts by weight of acetone Emulsifier: 1 part by weight of alkylaryl polyglycol ether To produce a suitable preparation of active compound, 1 part by weight of active compound is mixed with the stated amount of solvent, the stated amount of emulsifier is added and the concentrate is diluted with water to the desired concentration. […]
// reported degree of damage to the plants in % damage for each item listed
attribute-measured: degree of damage to the plants in % damage (%)

> print(dat)
                                   compound  endpoint.value
1  COC1CCC2(CC1)NC(=O)C(Cl)(c1cc(-c3ccc(Cl)c(Cl)c3)ccc1C)C2=O (stereo not shown)              90
2  CCOC1CCC2(CC1)NC(=O)C(Cl)(c1c(C)cc(-c3ccc(Cl)cc3)cc1CC)C2=O (stereo not shown)             100
3  Cc1cc(-c2ccc(Cl)cc2)cc(Cl)c1C1(Cl)C(=O)NC2(CCCOC2)C1=O (stereo not shown)              95
4  CCOC1CCC2(CC1)NC(=O)C(Cl)(c1c(C)cc(-c3ccc(Cl)cc3)cc1Cl)C2=O (stereo not shown)             100
